- System under test: 2-5A-dependent ribonuclease (Homo sapiens)
- Assay summary: Inhibition of his6-tagged full length human RNase L expressed in insect cells at 250 uM incubated for 30 min by FRET assay relative to control
Below: a set of entries, each annotated with reported inhibition.
Kindly provide the numeric value in % only, without the unit symbol.

- Molecule smiles: "CCN(CC)CCNC(=O)c1c(C)[nH]c(/C=C2/SC(Nc3cccc(F)c3)=C(C(=O)NCc3ccccc3)C2=O)c1C"
  System under test: "2-5A-dependent ribonuclease (Homo sapiens)"
  Measured quantity: "inhibition"
  Readout value: 99

Q) Any idea what inhibition was measured for `CCN(CC)CCNC(=O)c1c(C)[nH]c(/C=C2/SC(Nc3ccccc3)=C(C(=O)NC)C2=O)c1C` ?
A) 67

Q) Given `CCOC(=O)C1=C(Nc2ccccc2)S/C(=C/c2[nH]c(C)c(C(=O)NCCN(CC)CC)c2C)C1=O` , state its recorded inhibition.
A) 78
